These entries and their values trace back to patent US10370380B2.

targetOfAssay: humanized OX1 receptor (Homo sapiens, UniProt O43613)
Construct: expressed in transfected cells; host or cells: CHO (Chinese hamster ovary) cells
assayExplanation: Antagonistic effect on humanized OX1 receptor, calcium flux by fluorescence detection in CHO cells
Assay type: cell-based
settings: CHO cells, calcium flux induced by 3 nM orexin A; read-out: OX1 IC50
quantityKind: IC50 (µM)
Express it in µM; write the number only.

Some compounds with known IC50 results, for comparison:
O=C(c1c(F)cccc1-n1nccn1)N1CC2CN(c3nc4cc(F)ccc4o3)CC2C1 (stereo not shown) [Example 6] = 0.589
Cc1ccc(-n2nccn2)c(C(=O)N2CC3CN(c4nc5cc(F)ccc5o4)CC3C2)c1 (stereo not shown) [Example 4] = 0.611
Cc1ccc(-n2nccn2)c(C(=O)N2CC3CN(c4ncc5cc(F)ccc5n4)CC3C2)c1 (stereo not shown) [Example 12] = 0.347

As a next step, examine the compound that follows.
(Q) Consider the compound O=C(c1ccccc1-n1nccn1)N1CC2CN(c3nc4cc(F)ccc4o3)CC2C1 (stereo not shown) [Example 5] and give its measured IC50.
(A) 0.642

====

assayExplanation: Pharmacokinetic evaluation after intravenous or gavage administration to rats
Assay type: in vivo, SD rats
settings: SD, rat, in vivo; rats, po, 5 mg/kg; read-out: AUCINF
quantityKind: AUC(0-inf) (ng·h/mL)
Number only, in ng·h/mL; omit the unit.

(Q) Look up AUC(0-inf): Cc1ccc(-n2nccn2)c(C(=O)N2CCN(c3nc4cc(Cl)ccc4o3)CC[C@H]2C)c1 [suvorexant, reference compound]
(A) 530

====

assayExplanation: Pharmacokinetic evaluation after intravenous or gavage administration to rats
Type: in vivo, SD rats
settings: SD, rat, in vivo; rats, po, 5 mg/kg; read-out: AUClast
quantityKind: AUC(0-t) (ng·h/mL)
Hi! Could you send only the number? It should be in ng·h/mL, unit omitted.

(Q) Would you mind telling me what AUC(0-t) value was observed for Cc1ccc(-n2nccn2)c(C(=O)N2CCN(c3nc4cc(Cl)ccc4o3)CC[C@H]2C)c1 [suvorexant, reference compound] ?
(A) 528

====

assayExplanation: Pharmacokinetic evaluation after intravenous or gavage administration to dogs
Type: in vivo, Beagle dogs
settings: beagle, dog, in vivo; dogs, iv, 1 mg/kg; read-out: Cl
quantityKind: clearance (mL/min/kg)
Numeric answer only, unit mL/min/kg assumed.

(Q) Name the reported clearance value associated with the compound Cc1ccc(-n2nccn2)c(C(=O)N2CCN(c3nc4cc(Cl)ccc4o3)CC[C@H]2C)c1 [suvorexant, reference compound]
(A) 2.82

====

assayExplanation: Pharmacokinetic evaluation after intravenous or gavage administration to dogs
Assay type: in vivo, Beagle dogs
settings: beagle, dog, in vivo, po, 5 mg/kg
AUC(0-t) overview
Unit ng·h/mL implied. Number only.

Examples with answers:
Cc1ccc(-n2nccn2)c(C(=O)N2CC3CN(c4ncc5cc(F)ccc5n4)CC3C2)c1 (stereo not drawn) [Example 12] = 7310
Cc1ccc(-n2nccn2)c(C(=O)N2CC3CN(c4nc5cc(Cl)ccc5o4)CC3C2)c1 (stereo not drawn) [Example 1] = 15900

With those in mind, consider the next molecule.
(Q) What does the data say about its AUC(0-t)? Entry: O=C(c1c(F)cccc1-n1nccn1)N1CC2CN(c3nc4cc(Cl)ccc4o3)CC2C1 (stereo not drawn) [Example 3]
(A) 35000

====

assayExplanation: Stability in human liver microsome
Format: in vitro ADME
settings: human, microsomes, pH 4
quantityKind: CLint scaled at 1 μM (mL/min/kg)
Express your answer in mL/min/kg, writing the number without its unit.

(Q) GET /values?readout=CLint scaled at 1 μM&item= Cc1ccc(-n2nccn2)c(C(=O)N2CC3CN(c4nc5cc(Cl)ccc5o4)CC3C2)c1 (stereo not shown) [Example 1]
(A) 35.1

====

assayExplanation: Pharmacokinetic evaluation after intravenous or gavage administration to dogs
Format: in vivo, Beagle dogs
settings: beagle, dog, in vivo; dogs, iv, 1 mg/kg; read-out: MRTINF
Procedure: The compounds disclosed herein were administered in form of a saline solution containing 5% DMSO, 5% Kolliphor HS 15, 2% (2% HCl) and 88% Saline, or a solution containing 10% DMSO, 10% Kolliphor HS 15 and 80% physiological saline to the subject animals. […] The above plasma samples were analyzed by the LC-MS/MS system.
quantityKind: MRT inf (h)
Number in h, nothing else.

(Q) For the compound Cc1ccc(-n2nccn2)c(C(=O)N2CCN(c3nc4cc(Cl)ccc4o3)CC[C@H]2C)c1 [suvorexant, reference compound] , what MRT inf is on record?
(A) 5.39

====

assayExplanation: Stability in human liver microsome
Format: in vitro ADME
settings: human, microsomes, pH 4
quantityKind: half-life at 1 μM
Kindly format the answer as number then unit.

(Q) Returns the measured half-life at 1 μM for the input compound. Input: Cc1ccc(-n2nccn2)c(C(=O)N2CC3CN(c4nc5cc(Cl)ccc5o4)CC3C2)c1 (stereo not shown)
(A) 49.5 min

====

assayExplanation: Pharmacokinetic evaluation after intravenous or gavage administration to rats
Assay type: in vivo, SD rats
settings: SD, rat, in vivo, po, 2.5 mg/kg
Response key: satisfied means Cmax >= 500 ng/mL; not satisfied means Cmax < 500 ng/mL.

O=C(c1c(F)cccc1-n1nccn1)N1CC2CN(c3nc4cc(Cl)ccc4o3)CC2C1 (centres unmarked) [Example 3] = satisfied
O=C(c1ccccc1-n1nccn1)N1CC2CN(c3ncc4cc(F)ccc4n3)CC2C1 (centres unmarked) [Example 13] = satisfied

(Q) Textbook exercise: given the entry Cc1ccc(-n2nccn2)c(C(=O)N2CC3CN(c4nc5cc(Cl)ccc5o4)CC3C2)c1 (centres unmarked) [Example 1] , state whether its Cmax is greater than or equal to 500 ng/mL.
(A) not satisfied

(Q) Could you please find out whether Cc1ccc(-n2nccn2)c(C(=O)N2CC3CN(c4ncc5cc(F)ccc5n4)CC3C2)c1 (centres unmarked) [Example 12] has Cmax that meets 500 ng/mL or exceeds it?
(A) not satisfied

====

assayExplanation: Pharmacokinetic evaluation after intravenous or gavage administration to rats
Assay type: in vivo, SD rats
settings: SD, rat, in vivo; rats, po, 5 mg/kg; read-out: Cmax
quantityKind: Cmax (ng/mL)
The figure you give is taken to be in ng/mL; do not add the unit.

(Q) Recorded Cmax for Cc1ccc(-n2nccn2)c(C(=O)N2CCN(c3nc4cc(Cl)ccc4o3)CC[C@H]2C)c1 [suvorexant, reference compound] , please?
(A) 249

====

assayExplanation: Pharmacokinetic evaluation after intravenous or gavage administration to rats
Assay type: in vivo, SD rats
settings: SD, rat, in vivo; rats, iv, 2 mg/kg; read-out: T1/2 (converted)
Method: The compounds disclosed herein were administered in form of a saline solution containing 5% DMSO, 5% Kolliphor HS 15, 2% (2% HCl) and 88% Saline, or a solution containing 10% DMSO, 10% Kolliphor HS 15 and 80% physiological saline to the subject animals. […] The above plasma samples were analyzed by the LC-MS/MS system.
quantityKind: half-life (min)
Expressed in min, but write only the number.

(Q) Can you look up the measured half-life of Cc1ccc(-n2nccn2)c(C(=O)N2CCN(c3nc4cc(Cl)ccc4o3)CC[C@H]2C)c1 [suvorexant, reference compound] for me?
(A) 34.1

====

targetOfAssay: humanized OX1 receptor (Homo sapiens)
Construct: expressed in transfected cells; host or cells: CHO (Chinese hamster ovary) cells
Sequence (O43613 1-425): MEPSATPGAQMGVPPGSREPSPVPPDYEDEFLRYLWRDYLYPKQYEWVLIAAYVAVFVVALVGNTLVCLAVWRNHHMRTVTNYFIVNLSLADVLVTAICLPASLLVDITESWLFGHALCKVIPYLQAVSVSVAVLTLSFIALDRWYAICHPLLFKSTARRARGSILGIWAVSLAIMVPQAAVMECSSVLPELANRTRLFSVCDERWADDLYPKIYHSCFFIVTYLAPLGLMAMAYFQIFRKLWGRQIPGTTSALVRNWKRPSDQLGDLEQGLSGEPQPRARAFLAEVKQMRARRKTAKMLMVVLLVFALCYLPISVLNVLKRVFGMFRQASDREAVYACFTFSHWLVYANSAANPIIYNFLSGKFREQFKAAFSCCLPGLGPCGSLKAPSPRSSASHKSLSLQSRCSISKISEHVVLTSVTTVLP
assayExplanation: Antagonistic effect on humanized OX1 receptor, calcium flux by fluorescence detection in CHO cells
Assay type: cell-based
quantityKind: pIC50
Answer as the number alone; pIC50 is minus log10 of concentration in mol/L.

(Q) Can you look up the measured pIC50 of Cc1ccc(-n2nccn2)c(C(=O)N2CC3CN(c4nc5cc(Cl)ccc5o4)CC3C2)c1 (stereo not shown) for me?
(A) 6.22

====

The reader will find reported AUC(0-t) values listed item by item below.
assayExplanation: Pharmacokinetic evaluation after intravenous or gavage administration to rats
Assay type: in vivo, SD rats
settings: SD, rat, in vivo, iv, 1 mg/kg
The answer is to be given in ng·h/mL; state only the numeric part.

Cc1ccc(-n2nccn2)c(C(=O)N2CC3CN(c4ncc5cc(F)ccc5n4)CC3C2)c1 (centres unmarked) [Example 12] = 460
O=C(c1ccccc1-n1nccn1)N1CC2CN(c3ncc4cc(F)ccc4n3)CC2C1 (centres unmarked) [Example 13] = 864
O=C(c1ccccc1-n1nccn1)N1CC2CN(c3nc4cc(Cl)ccc4o3)CC2C1 (centres unmarked) [Example 2] = 549
O=C(c1c(F)cccc1-n1nccn1)N1CC2CN(c3nc4cc(Cl)ccc4o3)CC2C1 (centres unmarked) [Example 3] = 624

Consider the record given below.
(Q) Would you kindly share the measured AUC(0-t) for Cc1ccc(-n2nccn2)c(C(=O)N2CC3CN(c4nc5cc(Cl)ccc5o4)CC3C2)c1 (centres unmarked) [Example 1] ?
(A) 415
